- assay.system: UniProtKB P17252
Calls of active or inactive are those of the source.
Returns: one label drawn from active, inactive

Record request — test call for Cc1cc(C(=O)Nc2cc(Oc3ccc4nc(NC(=O)C5CC5)cn4n3)ccc2C)n(C)n1 [TAK-593]
inactive

For COc1cccc(Nc2ncnn3ccc(CN4CC[C@@H](N)[C@H](O)C4)c23)c1 [BMS-690514] , which call appears in the assay record?
active

What outcome does the record of this test show for COc1cc2c(Oc3ccc4[nH]c(C)cc4c3F)ncnc2cc1OCCCN1CCCC1 [CEDIRANIB] ?
inactive

Status in this test for N#CCNC(=O)c1ccc(-c2ccnc(Nc3ccc(N4CCOCC4)cc3)n2)cc1 [MOMELOTINIB] ?
inactive

How was CC(C)(O)CC(=O)NCCn1ccc2ncnc(Nc3ccc(Oc4cccc(C(F)(F)F)c4)c(Cl)c3)c21 [TAK-285] classified in this test?
inactive

Called result for CNC(=O)c1cccc(-c2ccc3c(N4CCOC[C@@H]4C)nc(N4CCOC[C@@H]4C)nc3n2)c1 [VISTUSERTIB]
inactive

----------
- assay.system: Tyrosine-protein kinase Fer (Homo sapiens, UniProt P16591); note: in the data inactive means no Kd found up to 30 µM
- Sequence (P16591 whole entry): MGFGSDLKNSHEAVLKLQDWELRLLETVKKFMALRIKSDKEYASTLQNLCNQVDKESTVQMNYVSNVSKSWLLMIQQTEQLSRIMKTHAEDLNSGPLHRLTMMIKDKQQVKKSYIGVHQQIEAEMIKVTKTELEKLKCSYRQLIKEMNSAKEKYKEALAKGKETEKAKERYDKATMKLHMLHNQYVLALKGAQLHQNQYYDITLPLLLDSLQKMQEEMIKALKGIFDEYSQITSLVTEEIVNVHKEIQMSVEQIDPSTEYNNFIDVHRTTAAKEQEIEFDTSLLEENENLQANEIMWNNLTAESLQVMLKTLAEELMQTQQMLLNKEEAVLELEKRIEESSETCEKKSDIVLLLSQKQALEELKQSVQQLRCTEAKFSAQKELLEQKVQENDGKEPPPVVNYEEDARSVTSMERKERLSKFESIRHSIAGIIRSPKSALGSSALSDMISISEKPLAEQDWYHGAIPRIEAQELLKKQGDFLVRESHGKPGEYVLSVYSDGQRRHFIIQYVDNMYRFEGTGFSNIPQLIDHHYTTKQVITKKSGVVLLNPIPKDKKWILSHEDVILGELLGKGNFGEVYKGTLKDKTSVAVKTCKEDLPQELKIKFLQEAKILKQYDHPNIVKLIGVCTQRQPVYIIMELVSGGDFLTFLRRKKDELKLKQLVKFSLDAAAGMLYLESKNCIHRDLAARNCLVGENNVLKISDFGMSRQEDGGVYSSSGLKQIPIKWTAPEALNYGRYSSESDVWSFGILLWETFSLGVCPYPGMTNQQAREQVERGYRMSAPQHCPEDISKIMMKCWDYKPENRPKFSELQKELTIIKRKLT
The source made the active and inactive calls.
Response enum: active, inactive

Recorded results for 3 compounds are shown here.
INSERT INTO assay_data (compound, label_class) VALUES
  ('O=c1[nH]c([C@@H]2CCCN2)nc2c1oc1ccc(Cl)cc12', 'inactive'),
  ('COc1cc2ncnc3c2cc1OCCCCCN(C)Cc1ccc(Br)cc1N3 [JNJ-26483327]', 'inactive'),
  ('O=S(=O)(c1cccc2cnccc12)N1CCCNCC1 [FASUDIL]', 'inactive');

What is the recorded call for this compound in the test? FC(F)(F)c1ccc(CNc2ccc(Cc3c[nH]c4ncc(Cl)cc34)cn2)cn1 [PEXIDARTINIB]
inactive

Dear colleague, could you share the recorded outcome for Cc1cc(Nc2nc(N[C@@H](C)c3ncc(F)cn3)ncc2Cl)n[nH]1 [AZD-1480] when you have a moment?
active

----------
- assay.system: Receptor-interacting serine/threonine-protein kinase 2 (Homo sapiens, UniProt O43353); note: in the data inactive means no Kd found up to 30 µM
- Sequence (O43353 whole entry): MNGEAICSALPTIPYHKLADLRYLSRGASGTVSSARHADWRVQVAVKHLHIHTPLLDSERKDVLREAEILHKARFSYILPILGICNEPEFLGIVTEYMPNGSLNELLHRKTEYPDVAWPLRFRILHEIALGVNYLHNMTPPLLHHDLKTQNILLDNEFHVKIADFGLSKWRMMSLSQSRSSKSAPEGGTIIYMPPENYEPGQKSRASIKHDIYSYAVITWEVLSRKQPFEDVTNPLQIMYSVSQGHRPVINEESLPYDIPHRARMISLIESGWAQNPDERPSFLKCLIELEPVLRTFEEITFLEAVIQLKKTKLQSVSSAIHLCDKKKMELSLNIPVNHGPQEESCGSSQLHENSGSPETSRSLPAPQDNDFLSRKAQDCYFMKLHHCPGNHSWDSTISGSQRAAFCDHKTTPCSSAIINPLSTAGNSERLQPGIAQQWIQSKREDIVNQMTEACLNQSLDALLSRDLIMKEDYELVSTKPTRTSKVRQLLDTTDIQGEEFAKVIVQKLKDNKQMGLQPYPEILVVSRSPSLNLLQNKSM
Active and inactive are the calls of the source.
readout.type: Kd

Solved cases (2 shown):
INSERT INTO measurements (molecule, result) VALUES
  ('NC[C@@](O)(c1ccc(Cl)cc1)c1ccc(-c2cn[nH]c2)cc1 [AT-13148]', '> 30 µM (inactive)'),
  ('CCc1cc2c(cc1N1CCC(N3CCOCC3)CC1)C(C)(C)c1[nH]c3cc(C#N)ccc3c1C2=O [ALECTINIB]', '> 30 µM (inactive)');

Tested on Receptor-interacting serine/threonine-protein kinase 2 (Homo sapiens, UniProt O43353): N#CCNC(=O)c1ccc(-c2ccnc(Nc3ccc(N4CCOCC4)cc3)n2)cc1 [MOMELOTINIB] . Observed Kd: > 30 µM (inactive)

----------
- assay.system: Casein kinase I isoform epsilon (Homo sapiens); note: in the data inactive means no Kd found up to 30 µM
- Sequence (P49674 whole entry, canonical isoform): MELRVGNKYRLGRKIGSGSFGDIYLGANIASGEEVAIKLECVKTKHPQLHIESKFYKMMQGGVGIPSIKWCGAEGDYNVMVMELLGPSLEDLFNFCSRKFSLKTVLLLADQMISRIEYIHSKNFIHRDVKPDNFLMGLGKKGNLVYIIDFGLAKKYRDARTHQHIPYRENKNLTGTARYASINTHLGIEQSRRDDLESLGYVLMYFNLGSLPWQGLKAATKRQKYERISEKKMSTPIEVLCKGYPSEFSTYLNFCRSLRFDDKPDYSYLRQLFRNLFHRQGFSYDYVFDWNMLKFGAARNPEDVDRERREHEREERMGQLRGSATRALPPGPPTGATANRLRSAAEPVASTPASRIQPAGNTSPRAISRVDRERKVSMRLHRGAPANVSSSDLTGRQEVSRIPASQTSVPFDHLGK
Activity calls are given as the source filed them.
readout.type: Kd

Consider the reported Kd for these compounds:
INSERT INTO assay_data (compound, result) VALUES
  ('O=C(NOC[C@H](O)CO)c1ccc(F)c(F)c1Nc1ccc(I)cc1F', '> 30 µM (inactive)'),
  ('O=S(=O)(c1cccc2c(O)nccc12)N1CCCNCC1 [HYDROXYFASUDIL]', '> 30 µM (inactive)');

Result for `Cn1cc(-c2[nH]c3cc(NC(=O)[C@H](N)C4CCCCC4)cc4c3c2C=NNC4=O)cn1` , tested on Casein kinase I isoform epsilon (Homo sapiens), Kd: > 30 µM (inactive)

Sourced from ChEMBL document CHEMBL3991601
